Molecular target: human mGlu2 receptor (Homo sapiens, UniProt Q14416)
Sequence (Q14416 19-872): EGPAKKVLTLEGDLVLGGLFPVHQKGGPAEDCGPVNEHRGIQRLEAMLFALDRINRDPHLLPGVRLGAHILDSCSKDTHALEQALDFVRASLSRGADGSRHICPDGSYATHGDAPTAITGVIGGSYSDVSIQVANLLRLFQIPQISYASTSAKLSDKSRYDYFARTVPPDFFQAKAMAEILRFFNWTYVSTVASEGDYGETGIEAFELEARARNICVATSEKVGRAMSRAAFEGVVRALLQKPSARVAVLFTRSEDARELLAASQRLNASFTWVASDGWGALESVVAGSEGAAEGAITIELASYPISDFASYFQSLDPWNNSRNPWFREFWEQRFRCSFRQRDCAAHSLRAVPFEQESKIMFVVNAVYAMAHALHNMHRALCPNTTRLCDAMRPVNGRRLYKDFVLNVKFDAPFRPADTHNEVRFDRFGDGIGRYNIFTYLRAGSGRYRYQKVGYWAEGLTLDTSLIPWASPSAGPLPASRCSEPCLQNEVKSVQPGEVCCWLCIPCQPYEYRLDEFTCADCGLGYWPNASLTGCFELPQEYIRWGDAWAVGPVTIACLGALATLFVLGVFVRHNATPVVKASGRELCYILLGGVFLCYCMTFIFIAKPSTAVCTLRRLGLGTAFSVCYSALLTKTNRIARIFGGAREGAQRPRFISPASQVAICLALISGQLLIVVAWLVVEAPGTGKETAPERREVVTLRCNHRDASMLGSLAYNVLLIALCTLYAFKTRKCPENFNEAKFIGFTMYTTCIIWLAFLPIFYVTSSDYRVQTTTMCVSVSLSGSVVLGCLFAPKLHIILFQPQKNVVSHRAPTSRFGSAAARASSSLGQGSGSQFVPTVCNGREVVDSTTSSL
Assay: [35S]GTPγS binding assay, mGluR2 negative allosteric modulation (membranes from CHO cells transfected with human mGlu2 receptor, glutamate ~EC80 60 μM);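 further: membranes preincubated 30 min at 30 °C with compound plus glutamate, then [35S]GTPγS (0.1 nM) incorporation measured over another 30 min at 30 °C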
Conditions: GTPγS - hmGluR2 anGT pIC50, membranes with human mGlu2 receptor, glutamate ~EC80 (60 μM); pIC50 = -log IC50 (M)
READOUT: log10 of IC50 (log10 of the value in M)
Would you kindly interpret these values as log10 of IC50 expressed in M?

Examples with answers:
* C[C@H]1CN(c2ccc(C(F)(F)F)cc2)C(=O)c2c(C(=O)Nc3cccnc3)cnn21 [compound 1] | -8.72
* Cc1cncc(NC(=O)c2cnn3c2C(=O)N(c2ccc(C(F)(F)F)c(Cl)c2)C[C@@H]3C)c1C [compound 126] | -8.93

Lab note: measured log10 of IC50 of C[C@H]1CN(c2ccc(C(F)(F)F)cc2)C(=O)c2c(C(=O)NC3COC3)cnn21 [compound 72] was -6.56

Lab note: measured log10 of IC50 of COc1cc(N2C[C@H](C)n3ncc(C(=O)Nc4cc(C)nc(C)c4)c3C2=O)ccc1C(F)(F)F [compound 143] was -8.09

Lab note: measured log10 of IC50 of C[C@H]1CN(c2ccc(C(F)(F)F)cc2)C(=O)c2c(C(=O)NCC3CC3)cnn21 [compound 60] was -7.36

Lab note: measured log10 of IC50 of C[C@H]1CN(c2ccc(C(F)(F)F)cc2)C(=O)c2c(C(=O)Nc3ccc(F)cc3)cnn21 [compound 7] was -8.33

Lab note: measured log10 of IC50 of C[C@H]1CN(c2ccc(C(F)(F)F)cc2)C(=O)c2c(C(=O)Nc3ncc[nH]3)cnn21 [compound 142] was -6.67

Lab note: measured log10 of IC50 of C[C@H]1CN(c2ccc(C(F)(F)F)c(Cl)c2)C(=O)c2c(C(=O)Nc3ccccn3)cnn21 [compound 46] was -8.56

Lab note: measured log10 of IC50 of Cc1c(F)cncc1NC(=O)c1cnn2c1C(=O)N(c1ccc(Cl)c(Cl)c1)C[C@@H]2C [compound 130] was -9.07
